Molecular target: Human PDE4A3 (Homo sapiens (Human), UniProt P27815)
Sequence (P27815 other isoform, or with tags, fused parts or gaps): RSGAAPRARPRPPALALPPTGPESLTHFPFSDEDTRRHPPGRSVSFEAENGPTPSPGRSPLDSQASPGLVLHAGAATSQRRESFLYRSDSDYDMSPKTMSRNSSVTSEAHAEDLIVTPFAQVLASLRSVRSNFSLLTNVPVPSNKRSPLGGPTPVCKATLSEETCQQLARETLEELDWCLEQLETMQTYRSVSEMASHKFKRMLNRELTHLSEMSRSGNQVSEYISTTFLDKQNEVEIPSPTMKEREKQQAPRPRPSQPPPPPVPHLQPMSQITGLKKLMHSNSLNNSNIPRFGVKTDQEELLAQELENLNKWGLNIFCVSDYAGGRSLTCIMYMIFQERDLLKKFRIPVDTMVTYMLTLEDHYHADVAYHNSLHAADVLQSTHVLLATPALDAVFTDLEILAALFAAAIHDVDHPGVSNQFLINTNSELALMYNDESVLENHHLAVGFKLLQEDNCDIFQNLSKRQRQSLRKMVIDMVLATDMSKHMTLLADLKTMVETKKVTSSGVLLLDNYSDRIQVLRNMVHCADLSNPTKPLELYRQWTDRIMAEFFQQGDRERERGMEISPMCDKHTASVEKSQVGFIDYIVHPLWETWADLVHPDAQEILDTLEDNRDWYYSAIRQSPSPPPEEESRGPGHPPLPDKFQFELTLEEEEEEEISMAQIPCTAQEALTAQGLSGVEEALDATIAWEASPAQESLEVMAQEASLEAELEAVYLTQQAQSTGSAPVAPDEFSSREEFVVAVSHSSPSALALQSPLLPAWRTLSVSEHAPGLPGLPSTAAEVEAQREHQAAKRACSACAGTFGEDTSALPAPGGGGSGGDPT
Assay: PDE4A3 Scintillation Proximity Assay (SPA), inhibition of enzyme activity
Format: biochemical
Settings: Table 9, geometric mean of 2-9 determinations unless otherwise indicated, read-out: Human PDE4A FL
# if measured IC50 < 4 nM: true  # else: false

{"compound": "O=C1c2c(-c3cc(F)c(F)c(F)c3)c3ncccc3n2CCN1C1CC1 [Example 40]", "label": "true"}
{"compound": "COc1c(F)cc(-c2c3n(c4cccnc24)CCN(C2CC2)C3=O)cc1F [Example 24]", "label": "false"}
{"compound": "N#Cc1ccc(-c2c3n(c4scnc24)CCN(C2CC2)C3=O)cc1F [Example 72]", "label": "true"}
{"compound": "O=C1c2c(-c3ccc(Cl)cc3)c3c(n2CCN1C1CC1)CCCO3 [Example 75]", "label": "true"}
{"compound": "N#Cc1ccc(-c2c3n(c4cccnc24)CC2CCCN2C3=O)cc1 (stereo not shown) [Example 61]", "label": "false"}
{"compound": "Cc1ccc(-c2c3n(c4cccnc24)CCN(C2CC2)C3=O)cc1C [Example 33]", "label": "false"}
{"compound": "O=C1c2c(-c3ccc(Cl)c(F)c3)c3ncccc3n2CCN1C1CC1 [Example 32]", "label": "true"}
{"compound": "N#Cc1cc(-c2c3n(c4cccnc24)CCN(C2CC2)C3=O)ccc1Cl [Example 34]", "label": "true"}
{"compound": "Cc1cc(-c2c3n(c4cccnc24)CCN(C2CC2)C3=O)ccc1F [Example 37]", "label": "true"}
{"compound": "O=C1c2c(-c3ccc(Cl)cc3)c3cccnc3n2CCN1C1CC1 [Example 9]", "label": "false"}
{"compound": "COc1c(F)cc(-c2c3n(c4nccnc24)CCN(C2CC2)C3=O)cc1F [Example 59]", "label": "false"}
{"compound": "Cc1ccc(-c2c3n(c4cccnc24)CCN(C2CC2)C3=O)c(C)c1 [Example 65]", "label": "false"}
{"compound": "O=C1c2c(-c3ccc(Cl)c(F)c3)c3c(n2CCN1C1CC1)CCCO3 [Example 76]", "label": "true"}
{"compound": "Cc1cc(Cl)c(F)cc1-c1c2c(n3c1C(=O)N(C1CC1)CC3)CCCO2 [Example 29]", "label": "true"}
{"compound": "N#Cc1ccc(-c2c3n(c4scnc24)CCN(C2CC2)C3=O)cn1 [Example 71]", "label": "false"}
{"compound": "O=C1c2c(-c3ccc(Cl)cc3)c3ncncc3n2CCN1C1CC1 [Example 25]", "label": "false"}
{"compound": "Cc1ccc(-c2c3ncccc3n3ccn(C4CC4)c(=O)c23)c(C)c1 [Example 66]", "label": "false"}
{"compound": "O=C1c2c(-c3cncc(Cl)c3)c3ncccc3n2CCN1C1CC1 [Example 51]", "label": "false"}

Each recorded value in this set is attributed to patent US11472805B2.
